- test.summary: Aqueous solubility measurement (slurry in deionized water, HPLC analysis)
- Type: physicochemical
- stated.conditions: thermodynamic from solid; deionized water, shaking ca. 24 h, ambient temperature (ca. 22° C.), HPLC analysis
test.readout: solubility (µg/mL)
Output spec: scalar in µg/mL, unitless text.

Recorded solubility (compound COc1cc2nccc(Oc3ccc(NC(=O)C4(C(=O)Nc5ccc(F)cc5)CC4)cc3)c2cc1OC.O=C(O)CCC(=O)O [Form A] ): 164
